- System: HCT-116
- Assay Overview: NCI tumour cell line growth inhibition, 48 h
Activity calls are given as the source filed them. Cut-off read from the data, not from the text of the source: active = GI50 up to about 1.1 µM and inactive = higher.
Classes used: y for active, n for inactive

{"Compound": "Cn1/c(=N\\c2ccccc2[N+](=O)[O-])sc2ccccc21", "Group Label": "n"}
{"Compound": "NC(CCOCCP(=O)(O)CCC1C=CC=CC1)C(=O)O (stereo unspecified)", "Group Label": "n"}
{"Compound": "Cc1ccc(S(=O)(=O)Oc2cc(N)c3c(n2)CCC3)cc1", "Group Label": "n"}
{"Compound": "CC(C)c1ccc(C2NC(S)=NC3=C2c2ccccc2C3=O)cc1 (stereo unspecified)", "Group Label": "n"}
{"Compound": "C=C(Cl)C(C)(Cl)CCC(Br)C(C)(C)Cl (stereo unspecified)", "Group Label": "n"}
{"Compound": "N#C/C(=C\\c1ccccc1F)C(=O)c1ccccc1", "Group Label": "n"}
{"Compound": "CC(O)c1ccc(C(O)/C(=N\\NC(=O)c2ccncc2)c2nc3ccc([N+](=O)[O-])cc3nc2O)cc1 (stereo unspecified)", "Group Label": "n"}
{"Compound": "COC1=C(OC)C23CCc4ccc(OC)c(O)c4C2(CCN3)CC1=O (stereo unspecified)", "Group Label": "n"}
{"Compound": "COc1ccc(C(Nc2ccccn2)c2cc(C(C)(C)C)cc(C(C)(C)C)c2O)cc1 (stereo unspecified)", "Group Label": "n"}
{"Compound": "Cc1[nH]c(=O)nc(N/N=C/c2ccc(O)cc2)c1C(=O)Nc1ccc(O)cc1", "Group Label": "n"}
{"Compound": "CCOC(=O)C(Cc1ccc(N(CCCl)CCCl)cc1)NC(=O)C(Cc1ccccc1)NC(C)=O (stereo unspecified)", "Group Label": "y"}
{"Compound": "CC(C)C1CC2C(=O)N(c3ccccc3)C(=O)C2c2[nH]c3ccccc3c21 (stereo unspecified)", "Group Label": "n"}
{"Compound": "CC1(CCOCc2ccccc2)NC(=O)NC1=O (stereo unspecified)", "Group Label": "n"}
{"Compound": "CCOC(=O)C(Cc1ccc(N(CCCl)CCCl)cc1)NC(=O)C(Cc1ccccc1)NC=O (stereo unspecified)", "Group Label": "y"}
{"Compound": "CC[N+](C)(CC)CCC(O)(c1ccccc1)c1ccccc1", "Group Label": "n"}
{"Compound": "COc1cc2c(cc1Oc1c(Oc3c(O)c(OC)cc4c3C(CC(C)C)N(C)CC4)c(OC)cc3c1C(CC(C)C)N(C)CC3)C(CC(C)C)N(C)CC2 (stereo unspecified)", "Group Label": "y"}
